molecular target: HCV NS3/4A protease genotype 1b (Hepatitis C virus genotype 1b, UniProt P26663); test: HCV NS3/4A protease time-resolved fluorescence (TRF) assay, Ki against genotype 1b; assay type: biochemical; conditions: IC50 [gt-1b] (nM), NS3/4A genotype 1b, enzyme 0.2 nM; HCOOH salt
Sequence (P26663 1027-1657): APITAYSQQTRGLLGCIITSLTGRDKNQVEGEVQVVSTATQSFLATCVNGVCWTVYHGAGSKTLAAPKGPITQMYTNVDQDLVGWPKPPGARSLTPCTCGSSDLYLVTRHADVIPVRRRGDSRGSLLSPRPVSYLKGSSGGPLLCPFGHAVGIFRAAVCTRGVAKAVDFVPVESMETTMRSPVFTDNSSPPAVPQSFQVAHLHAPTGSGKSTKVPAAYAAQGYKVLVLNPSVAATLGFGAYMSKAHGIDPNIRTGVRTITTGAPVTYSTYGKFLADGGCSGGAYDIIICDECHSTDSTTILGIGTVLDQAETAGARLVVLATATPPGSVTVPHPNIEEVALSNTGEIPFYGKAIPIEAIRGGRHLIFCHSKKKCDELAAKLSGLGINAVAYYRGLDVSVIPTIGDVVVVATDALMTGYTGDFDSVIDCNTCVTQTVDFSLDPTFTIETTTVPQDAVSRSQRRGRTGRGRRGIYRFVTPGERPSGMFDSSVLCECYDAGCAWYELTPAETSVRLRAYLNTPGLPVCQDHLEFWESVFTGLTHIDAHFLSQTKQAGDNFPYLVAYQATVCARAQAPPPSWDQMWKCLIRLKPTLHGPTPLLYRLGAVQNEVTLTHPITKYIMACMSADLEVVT
Sequence (P26663 1658-1711): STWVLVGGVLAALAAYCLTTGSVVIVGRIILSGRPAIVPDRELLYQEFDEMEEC
Reported IC50 values for the following molecules.

Solved entries (count: 2):
* COc1ccc2c3c(c(C4CC4)nc2c1)O[C@]1(CC3)C[C@H]2C(=O)N[C@]3(C(=O)NS(=O)(=O)C4(C)CC4)C[C@H]3/C=C\CCCCC[C@H](NC(=O)OC3CCOC3)C(=O)N2C1 (stereo partly drawn) | 0.027 nM
* CCCOC(=O)N[C@H]1CCCCC/C=C\[C@@H]2C[C@@]2(C(=O)NS(=O)(=O)C2(C)CC2)NC(=O)[C@@H]2C[C@]3(CCc4c(c(C5CC5)nc5cc(OC)ccc45)O3)CN2C1=O | 0.031 nM

Now take the following molecule into account.
query: So what does the record say about IC50 for CCCCCOC(=O)N[C@H]1CCCCC/C=C\[C@@H]2C[C@@]2(C(=O)NS(=O)(=O)C2(C)CC2)NC(=O)[C@@H]2C[C@]3(CCc4c(c(C5CC5)nc5cc(OC)ccc45)O3)CN2C1=O ?
result: 1.13 nM
